Molecular target: cloned human dopamine D3 receptors (Homo sapiens)
Construct: expressed in transfected cells; membrane homogenate
Sequence (P35462 whole entry): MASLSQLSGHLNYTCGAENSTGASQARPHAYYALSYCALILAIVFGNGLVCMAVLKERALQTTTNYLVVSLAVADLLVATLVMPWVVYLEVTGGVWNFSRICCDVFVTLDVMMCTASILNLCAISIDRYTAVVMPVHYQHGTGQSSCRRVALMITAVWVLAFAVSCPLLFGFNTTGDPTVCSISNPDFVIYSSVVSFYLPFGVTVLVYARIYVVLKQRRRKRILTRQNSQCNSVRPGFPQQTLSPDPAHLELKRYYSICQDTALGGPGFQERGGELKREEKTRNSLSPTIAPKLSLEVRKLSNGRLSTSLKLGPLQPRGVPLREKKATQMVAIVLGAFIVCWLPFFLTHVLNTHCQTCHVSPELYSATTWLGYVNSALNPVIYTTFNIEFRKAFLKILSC
Test: [N-Methyl-3H]Spiroperidol binding to cloned human dopamine D3 receptors (Protocol 1)
Details: the 13th table, unit inferred; read-out: D3Ki
# Ki listing for each entry below

{"columns": ["COMPOUND", "Ki (nM)"],
 "data": [
  ["O=C(NCCCCN1CCCN(c2csc3cc(F)ccc23)CC1)c1cccc2ccccc12", 6.1],
  ["CSc1nsc(SC)c1C(=O)NCCCCN1CCCN(c2csc3cc(C(F)(F)F)ccc23)CC1", 151],
  ["O=C(NCCCCCN1CCCN(c2csc3cc(F)ccc23)CC1)c1cc2ccccc2s1", 11.6],
  ["O=C(NCCCCCN1CCCN(c2csc3cc(F)ccc23)CC1)c1cccs1", 31.6],
  ["O=C(NCCCCN1CCCN(c2csc3cc(F)ccc23)CC1)c1ccc2c(c1)C(=O)c1ccccc1-2", 0.51],
  ["O=C(NCCCCN1CCCN(c2csc3cc(F)ccc23)CC1)c1ccc2[nH]ccc2c1", 1.14],
  ["O=C(NCCCCCN1CCCN(c2csc3cc(F)ccc23)CC1)c1c2ccccc2cc2ccccc12", 57],
  ["O=C(NCCCCCN1CCC(c2noc3ccsc23)CC1)C(Cl)c1ccccc1 (stereo not shown)", 218],
  ["CCOc1ccc(C(=O)NCCCCCN2CCC(c3noc4ccsc34)CC2)cc1", 110],
  ["O=C(NCCCCN1CCCN(c2csc3cc(F)ccc23)CC1)c1cnc2ccccc2n1", 10.6]
]}
